targetEntity: Histone deacetylase 1 (Homo sapiens)
Sequence (Q13547 whole entry): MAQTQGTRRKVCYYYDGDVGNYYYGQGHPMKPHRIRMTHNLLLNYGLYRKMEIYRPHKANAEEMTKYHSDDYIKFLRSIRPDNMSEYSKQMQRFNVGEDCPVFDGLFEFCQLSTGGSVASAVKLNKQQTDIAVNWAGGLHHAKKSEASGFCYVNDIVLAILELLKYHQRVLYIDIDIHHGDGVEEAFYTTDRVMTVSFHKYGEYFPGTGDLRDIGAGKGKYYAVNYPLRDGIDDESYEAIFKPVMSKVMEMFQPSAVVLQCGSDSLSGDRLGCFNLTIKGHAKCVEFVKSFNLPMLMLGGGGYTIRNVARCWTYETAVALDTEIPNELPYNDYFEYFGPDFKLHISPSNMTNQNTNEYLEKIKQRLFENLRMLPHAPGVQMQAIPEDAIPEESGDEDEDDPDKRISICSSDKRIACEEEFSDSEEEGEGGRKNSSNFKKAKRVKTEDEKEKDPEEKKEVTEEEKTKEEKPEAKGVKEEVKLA
measuredQuantity: pIC50
// returns pIC50 (minus log10 of molar concentration), number only

[Q] Fill in pIC50 for record O=C(NO)c1ccc(Cl)c(NC(=O)c2cccc3ccsc23)c1
[A] 4.67

----------
targetEntity: Histone deacetylase 8 (Schistosoma mansoni, UniProt A5H660)
Sequence (A5H660 whole entry): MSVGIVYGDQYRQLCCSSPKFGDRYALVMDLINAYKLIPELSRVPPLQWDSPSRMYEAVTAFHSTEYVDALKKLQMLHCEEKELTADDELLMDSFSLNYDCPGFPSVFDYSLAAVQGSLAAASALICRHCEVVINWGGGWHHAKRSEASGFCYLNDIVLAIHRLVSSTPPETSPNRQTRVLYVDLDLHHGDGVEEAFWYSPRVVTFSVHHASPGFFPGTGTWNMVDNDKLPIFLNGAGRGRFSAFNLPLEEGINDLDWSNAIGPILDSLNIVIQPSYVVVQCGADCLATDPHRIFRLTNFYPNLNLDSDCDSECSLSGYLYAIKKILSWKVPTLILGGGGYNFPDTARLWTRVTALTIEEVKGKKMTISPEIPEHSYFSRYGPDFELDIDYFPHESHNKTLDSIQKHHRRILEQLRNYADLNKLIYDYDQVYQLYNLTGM
methodNotes: Inhibition of Schistosoma mansoni His-tagged HDAC8 expressed in Escherichia coli BL21 (DE3) cells using Fluor de Lys (R)-HDAC8 as substrate by fluorometric method
I'd be grateful if you could share measured pIC50 for these entries.
// returns pIC50 (minus log10 of molar concentration), number only

[Q] Fill in pIC50 for record O=C(NO)c1cccc(-c2cn(CSc3ccccc3)nn2)c1
[A] 7.02

[Q] Fill in pIC50 for record Cn1cc(CNCC2CCN(c3ncc(C(=O)NO)cn3)CC2)c2ccccc21
[A] 6.52

[Q] Fill in pIC50 for record O=C(NO)c1ccc(Cl)c(NC(=O)c2cccc3ccsc23)c1
[A] 7.01

----------
measuredQuantity: IC50 (µM)
Quick note: give the figure in µM, leave out the unit.

[Q] Jot down IC50 (Protein deacetylase HDAC6 (Homo sapiens, UniProt Q9UBN7)) of O=C(NO)c1ccc(Cl)c(NC(=O)c2cccc3ccsc23)c1 .
[A] 0.053

----------
targetEntity: Histone deacetylase 8 (Homo sapiens)
Sequence (Q9BY41 whole entry): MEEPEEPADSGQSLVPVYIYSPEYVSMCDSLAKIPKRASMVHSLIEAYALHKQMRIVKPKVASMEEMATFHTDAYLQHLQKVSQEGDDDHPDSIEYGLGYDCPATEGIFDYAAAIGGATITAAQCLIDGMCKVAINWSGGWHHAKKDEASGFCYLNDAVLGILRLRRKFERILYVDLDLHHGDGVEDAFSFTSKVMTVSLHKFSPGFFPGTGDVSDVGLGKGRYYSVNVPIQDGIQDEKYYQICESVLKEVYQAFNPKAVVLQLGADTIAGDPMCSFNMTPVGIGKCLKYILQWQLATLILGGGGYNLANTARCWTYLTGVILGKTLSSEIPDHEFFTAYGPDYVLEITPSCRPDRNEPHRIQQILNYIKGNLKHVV
measuredQuantity: pKd
// returns pKd (minus log10 of molar concentration), number only

[Q] Fill in pKd for record O=C(NO)c1cccc(-c2cn(CSc3ccccc3)nn2)c1
[A] 7.05
